# protocolText: Solubility of HPC in benzyl benzoate/castor oil mixtures
# Assay type: physicochemical
# testSettings: benzyl benzoate/castor oil mixture, 5 °C, oil or lipid, 5° C., 81.79 wt % BB relative to castor oil; read-out: mg HPC/mL solution (solubility)
resultType: solubility (mg/mL)
Number only, in mg/mL; omit the unit.

Recorded solubility for CCCCCC(=O)O[C@]1(C(C)=O)CC[C@H]2[C@@H]3CCC4=CC(=O)CC[C@]4(C)[C@H]3CC[C@@]21C [17-HPC, 17-alpha-hydroxyprogesterone caproate] , please?
273

* * *

# protocolText: Single-dose crossover pharmacokinetic study of 17-HPC, SQ (upper anterior thigh) vs IM (gluteus maximus) injection
# Format: in vivo, human
# testSettings: female, human; IM injection 250 mg (1 mL) gluteus maximus, single dose, healthy postmenopausal women, plasma; read-out: AUC0-t, LS Geometric Mean
resultType: AUC(0-t) (ng·h/mL)
Number only, in ng·h/mL; omit the unit.

Recorded AUC(0-t) for CCCCCC(=O)O[C@]1(C(C)=O)CC[C@H]2[C@@H]3CCC4=CC(=O)CC[C@]4(C)[C@H]3CC[C@@]21C [17-HPC, 17-alpha-hydroxyprogesterone caproate] , please?
621
